# assay system: hTREM2 (Homo sapiens)
# test details: Phospho-Syk AlphaScreen/AlphaLISA assay in TREM2 and DAP12 overexpressing HEK293 cells (Example A1)
# Assay type: cell-based
# Parameters: expressed in transfected cells
# condition label: HEK293 cells, read-out: hTREM2 EC50
# From the text: Pharmacological measurements of TREM2 signaling through DAP12 were made with TREM2 and DAP12 overexpressing HEK293 cells stable cell lines that had been single-cell cloned (“TREM2/DAP12-HEK”). The readout of the TREM2 signaling utilized Perkin Elmer AlphaScreen/AlphaLISA technology monitoring the phosphorylation levels of the Syk kinase. […]
endpoint name: EC50

Some compounds with recorded EC50:
compound: Cc1nc2cc(N3CCO[C@@H](c4cnn(C)c4)C3)cc(-c3ccc(Cl)cc3F)c2c(=O)n1C
assay system: hTREM2 (Homo sapiens)
recorded result: < 50 nM
--
compound: Cc1nc2cc(N3CCC[C@H](c4ccncc4)C3)nc(-c3ccc(Cl)cc3F)c2c(=O)n1C (single isomer, unassigned) [Example 114]
assay system: hTREM2 (Homo sapiens)
recorded result: 50 to 500 nM
--
compound: Cc1noc([C@H]2CCCN(c3cc4nc(C)n(C)c(=O)c4c(-c4ccc(Cl)cc4F)n3)C2)n1 [Example 230]
assay system: hTREM2 (Homo sapiens)
recorded result: 500 to 3000 nM
--
compound: CCCn1c(C)nc2cc(N3CCO[C@@H](c4ccccc4)C3)nc(-c3ccc(Cl)cc3F)c2c1=O
assay system: hTREM2 (Homo sapiens)
recorded result: 500 to 3000 nM
--
compound: Cc1nc2cc(N3CCc4cnccc4C3)nc(-c3ccc(Cl)cc3F)c2c(=O)n1C
assay system: hTREM2 (Homo sapiens)
recorded result: 500 to 3000 nM

Name the reported EC50 value associated with the compound Cc1cc([C@@H]2CN(c3cc4nc(C)n(C)c(=O)c4c(-c4ccc(Cl)cc4F)n3)CCO2)ccn1 50 to 500 nM

Name the reported EC50 value associated with the compound Cc1nc2cc(N3C[C@H](C)O[C@@H](c4ccsc4)C3)nc(-c3ccc(Cl)cc3F)c2c(=O)n1C (single isomer, unassigned) 50 to 500 nM

====

# assay system: hTREM2 (Homo sapiens, UniProt Q9NZC2)
# Sequence (Q9NZC2 19-230): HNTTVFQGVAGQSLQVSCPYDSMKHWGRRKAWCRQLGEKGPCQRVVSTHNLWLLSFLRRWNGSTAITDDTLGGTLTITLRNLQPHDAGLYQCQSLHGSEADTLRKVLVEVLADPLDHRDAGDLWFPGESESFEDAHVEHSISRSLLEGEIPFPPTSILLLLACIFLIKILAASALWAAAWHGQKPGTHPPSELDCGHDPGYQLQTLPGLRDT
# Sequence (O43914 22-113 partner): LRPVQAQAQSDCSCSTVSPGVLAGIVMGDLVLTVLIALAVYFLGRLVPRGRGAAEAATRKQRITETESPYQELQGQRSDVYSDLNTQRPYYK
# test details: Phospho-Syk AlphaScreen/AlphaLISA assay in TREM2 and DAP12 overexpressing HEK293 cells (Example A1)
# Type: cell-based
# Design: expressed in transfected cells
# condition label: HEK293 cells
endpoint name: Emax

compound: Cc1nc2cc(N3CCO[C@@H]([C@@H]4CCOC4)C3)nc(-c3ccc(Cl)cc3F)c2c(=O)n1C (single isomer, unassigned) [Example 44]
assay system: hTREM2 (Homo sapiens, UniProt Q9NZC2)
recorded result: +++ (Emax>200 and ≤300)
--
compound: Cn1cc([C@H]2CN(c3cc4nc(C(F)(F)F)n(C)c(=O)c4c(-c4ccc(Cl)cc4F)n3)CCO2)cn1 [Example 143]
assay system: hTREM2 (Homo sapiens, UniProt Q9NZC2)
recorded result: ++++ (Emax>300)
--
compound: Cc1nc2cc(N3CCC(F)(F)[C@H](c4cnn(C)c4)C3)nc(-c3ccc(Cl)cc3F)c2c(=O)n1C (single isomer, unassigned) [Example 117]
assay system: hTREM2 (Homo sapiens, UniProt Q9NZC2)
recorded result: +++ (Emax>200 and ≤300)
--
compound: Cc1nc2cc(N3CCO[C@H](c4cnn(C)c4)C3)nc(-c3ncc(Cl)cc3F)c2c(=O)n1C [Example 196]
assay system: hTREM2 (Homo sapiens, UniProt Q9NZC2)
recorded result: ++++ (Emax>300)
